Entry source: patent US20110183954A1

Task for the reader: assign each of the following molecules its reported pIC50.
Target: human JAK2 (Homo sapiens, UniProt O60674)
Sequence (O60674 808-1132 limits assumed): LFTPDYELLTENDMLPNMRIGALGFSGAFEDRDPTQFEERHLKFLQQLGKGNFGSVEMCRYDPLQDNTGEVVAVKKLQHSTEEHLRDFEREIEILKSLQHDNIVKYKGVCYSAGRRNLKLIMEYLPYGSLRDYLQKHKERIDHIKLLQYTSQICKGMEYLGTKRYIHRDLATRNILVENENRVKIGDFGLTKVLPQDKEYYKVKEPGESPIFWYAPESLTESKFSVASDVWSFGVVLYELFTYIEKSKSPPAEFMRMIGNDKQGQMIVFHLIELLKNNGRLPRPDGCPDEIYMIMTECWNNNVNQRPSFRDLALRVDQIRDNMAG
Experiment: Method 1 (JAK2): Amplified Luminescent Proximity Assay (Alphascreen)
Assay type: biochemical
Design: His6 (C); purchased Upstate Biotechnology; host or cells: baculovirus in Sf21 cells
Conditions: 150 pM JAK2 enzyme, 5 mM ATP, 60 minutes, room temperature, read-out: IC50 (JAK inhibitory activity, Method 1 (JAK2))
In textbook form, pIC50 equals minus log to base ten of the concentration in mol/L.

Kindly note the recorded pIC50 for C[C@H](Nc1nc(Nc2cn(C)cn2)nc(N2CCC(F)(F)CC2)n1)c1ncc(F)cc1F , which is 8.40

For record C[C@@H](Nc1nc(Nc2cn(C)cn2)nc(N2CCOCC2)n1)c1ncc(F)cc1F (single isomer, unassigned) the listed pIC50 is 6.72

// pIC50 lookup, molecule = C[C@H](Nc1nc(Nc2cn(CC#N)cn2)nc(N2CCOCC2)n1)c1ncc(F)cn1 , result: 6.06

Lab note: measured pIC50 of COC1CN(c2nc(Nc3cn(C)cn3)nc(N[C@@H](C)c3ncc(F)cc3F)n2)C1 was 8.52

pIC50 for C[C@H](Nc1nc(Nc2cn(C)cn2)nc(N2CCOCC2)n1)c1ncc(F)cn1 is 8.05
